Could you please report measured T/C for the items listed next?
Test system: HT29 intrarenal xenograft, nude mice, tumor weight change
Assay: NCI In Vivo Anticancer Drug Screen. Data for tumor model HT29;CX-1 Human Adenocarcinoma (MER+) (intrarenal inoculation) in NU/NU BALB/C (nude) mice
Settings: endpoint: mean tumor weight change; dose: 300.0 mg/kg/injection; schedule: Q04DX004 (sc); vehicle: saline; higher = larger tumour
Inconclusive results are not listed.

Exercise: Answer with the recorded T/C of CN(N=O)C(=O)N[C@@H](C=O)[C@@H](O)[C@H](O)[C@H](O)CO only.
Solution: 38 % of control

Exercise: Indicate the recorded T/C value for this molecule: COc1cc2c(ccc3c4cc(OC)c(OC)cc4c[n+](C)c23)cc1O
Solution: 51 % of control

Exercise: Name the recorded T/C of the molecule listed here: O=[N+]([O-])c1nccn1CC(O)CO (stereo not given)
Solution: 86 % of control

Exercise: Using the record for Oc1ccc(CCl)c2cccnc12 , state its measured T/C.
Solution: 89 % of control

Exercise: Report T/C, nothing else, for this molecule: CCOC(=O)C(N)CSC(=O)NC (stereo not given)
Solution: 75 % of control

Exercise: Quote T/C reported for OCC1OC(n2cnc3c(=S)nc[nH]c32)C(O)C1O (stereo not given) please.
Solution: 173 % of control

Exercise: // Input: CC(C)C(N)C(=O)Nc1nncs1 (stereo not given) . Output its T/C only.
Solution: 74 % of control

Exercise: Read off the recorded T/C for N#CC(OC1OC(COC2OC(CO)C(O)C(O)C2O)C(O)C(O)C1O)c1ccccc1 (stereo not given)
Solution: 95 % of control

Exercise: Please indicate T/C recorded for COc1cc(Cc2nccc3cc(OC)c(OC)cc23)c(C(C)=O)cc1OC
Solution: 55 % of control

Exercise: Give me measured T/C, please, for this molecule: O=C1CCC(=O)N1CO
Solution: 80 % of control
